src = PubChem BioAssay (NCI)

- Tested on: M14 melanoma
- TEST: NCI tumour cell line growth inhibition, 48 h
PARAMETER: TGI

The cases that follow already have their TGI on record.
COCCN(Cc1ccc(F)cc1)c1ccc(CO)c(Cl)c1	> 100 µM
O=C1N[C@@H]2CCCC[C@@H]2C12CCCCC2	> 100 µM
NC(N)=NCCCC(NCc1c2ccccc2nc2ccccc12)C(=O)O (stereo unspecified)	> 100 µM
Nc1nc(=S)c2ncn(C3OC(COP(=O)(O)O)C(O)C3O)c2[nH]1 (stereo unspecified)	32.8 µM
O=C(COc1ccc(/C=C2\Oc3ccccc3C2=O)cc1)Nc1nc2ccccc2s1	> 100 µM
O=C(c1ccc(Cl)cc1)N(C(=O)N1CCCCC1)c1ccccc1	> 100 µM
CCc1cccc(CC)c1NC(=O)/C(Cl)=C(/Cl)C(=O)O	35.9 µM
CSCCC(C(=O)O)N(C)C (stereo unspecified)	> 100 µM

Hi! Can you tell me TGI for each of these compounds?
1. Oc1ccc(C(=C(Br)c2ccccc2)c2ccc(O)cc2)cc1
2. Cc1nc2sc3cccc(Cl)c3n2c(=O)c1N=Nc1ccc(Cl)cc1
3. COC(=O)[C@H](Cc1ccccc1)NC(=O)c1ccc(CNC(=O)/C=C/c2csc(-c3ccccc3)n2)cc1

1. 15.3 µM
2. > 100 µM
3. 3.81 µM

====

For each record, write down the corresponding TGI.
- Test system: UACC-62 melanoma
- TEST: NCI tumour cell line growth inhibition, 48 h

Hi! Can you tell me TGI for each of these compounds?
1. COC(=O)C1CCC(=O)N1CN(C(C)=O)c1cccc(O)c1 (stereo not given)
2. O=c1[nH]c(N/N=C\C(O)C(O)C(O)C(O)CO)nc2ccccc12 (stereo not given)
3. COc1ccc2nc(NC(=O)C(=O)CC(=O)c3ccc([N+](=O)[O-])cc3)sc2c1
4. CCN1CCC(O)(c2ccc([N+](=O)[O-])cc2)C(C(=O)c2ccc([N+](=O)[O-])cc2)C1 (stereo not given)
5. O=c1cc(Nc2cccc(O)c2)[nH]c(=O)[nH]1

1: > 100 µM; 2: > 100 µM; 3: > 100 µM; 4: 33 µM; 5: > 100 µM

====

- Test system: SF-539 CNS
- TEST: NCI tumour cell line growth inhibition, 48 h
For each record, write down the corresponding GI50.

Nc1nccc(-c2c(-c3ccc(F)cc3)nn3cc(C(F)(F)F)ccc23)n1	> 25 µM
COc1ccccc1Oc1nccc(-c2c(-c3ccc(F)cc3)ncn2C2CCNCC2)n1	> 25 µM
OCCCCC#Cc1ccccc1C#Cc1cccc(C(F)(F)F)c1	20.1 µM
O=C(O)CN(CCN(CC(=O)O)CC(=O)O)CC(=O)O.[Mn+2]	> 100 µM

Requested read-out: GI50. Entry: `COc1ccccc1CNCCN1C(=O)c2ccc3c4c(ccc(c24)C1=O)C(=O)N(CCNCc1ccccc1OC)C3=O`
0.553 µM

====

For each record, write down the corresponding TGI.
- Tested on: M14 melanoma
- TEST: NCI tumour cell line growth inhibition, 48 h

The cases that follow already have their TGI on record.
O=C1c2ccccc2C(=O)c2[nH]cnc21	> 100 µM
COc1ccc(OC)c2sc(N3C(=O)/C(=C/c4cccc(Oc5ccccc5)c4)N=C3c3ccccc3)nc12	> 100 µM
O=c1[nH]c(N/N=C\C(O)C(O)C(O)C(O)CO)nc2ccccc12 (stereo not given)	> 100 µM
Cc1ccc(S(=O)(=O)N(CC(O)COc2ccccc2)c2c(F)cccc2F)cc1 (stereo not given)	32 µM

Hi! Can you tell me TGI for each of these molecules?
1. O=C1NC(=O)C2C(=O)NC(=O)C1C2Cc1ccco1 (stereo not given)
2. COc1ccccc1C1c2cc3c(cc2OC2(OC)COC(=O)C12)OCO3 (stereo not given)
3. COc1ccc(/C(Nc2ccccc2)=C(\CCl)c2ccccc2)cc1OC
4. COC(=O)[C@@H]1[C@@H]2NC(=S)N[C@@]1(C)Oc1ccccc12
5. O=[N+]([O-])c1ccc(-c2ccc(C3=Nn4c(CNc5ccccc5Cl)nnc4SC3)o2)cc1

> 100 µM
43.3 µM
> 100 µM
> 100 µM
> 100 µM

Requested read-out: TGI. Entry: CC(SC(=S)N1CCOCC1)C(=O)Nc1nnc(-c2ccc(Cl)cc2)o1 (stereo not given)
> 100 µM
